Could you please report measured IC50 for the items listed next?
- system-tested: JAK2 (Homo sapiens)
- Construct: purchased Invitrogen
- method: Assay for JAK2 Inhibition (phosphorylation of FAM-labeled substrate, Caliper LC-3000)
- Assay type: biochemical
- recorded-conditions: −log10(IC50), IC50 is the molar concentration at 50% inhibition; read-out: JAK2 pIC50 (converted)
The figure you give is taken to be in nM; do not add the unit.

Q: # value lookup — system JAK2 (Homo sapiens), readout IC50, item CCC1(N2Cc3c[nH]c4nccc(c34)C2=O)CCN(c2ccncn2)CC1 [Example 17]
Result: 5.01

Q: # value lookup — system JAK2 (Homo sapiens), readout IC50, item CC(C)(C)[C@H](C(=O)N1CC(C#N)C1)N1Cc2c(Cl)cnc3[nH]cc(c23)C1=O [Example 41]
Result: 50.1

Q: # value lookup — system JAK2 (Homo sapiens), readout IC50, item CC[C@H](CC#N)NC(=O)[C@@H](C(C)C)N1Cc2c(Cl)cnc3[nH]cc(c23)C1=O [Example 38]
Result: 1000

Q: # value lookup — system JAK2 (Homo sapiens), readout IC50, item CC(C)[C@H](C(=O)N(C)CCS(C)(=O)=O)N1Cc2c(F)cnc3[nH]cc(c23)C1=O [Example 78]
Result: 10000

Q: # value lookup — system JAK2 (Homo sapiens), readout IC50, item CC[C@H](C(=O)NC[C@H](O)CO)N1Cc2ccnc3[nH]cc(c23)C1=O [Example 71]
Result: 5010

Q: # value lookup — system JAK2 (Homo sapiens), readout IC50, item CC[C@H](C(=O)N1CCN(c2ccccn2)CC1)N1Cc2ccnc3[nH]cc(c23)C1=O [Example 64]
Result: 20000

Q: # value lookup — system JAK2 (Homo sapiens), readout IC50, item CC[C@H](C(=O)N1CCOCC1)N1Cc2ccnc3[nH]cc(c23)C1=O [Example 54]
Result: 31600

Q: # value lookup — system JAK2 (Homo sapiens), readout IC50, item CC(C)[C@H](C(=O)N1CC(C)(C#N)C1)N1Cc2c(F)cnc3[nH]cc(c23)C1=O [Example 52]
Result: 200

Q: # value lookup — system JAK2 (Homo sapiens), readout IC50, item CC(C)[C@H](C(=O)N1CC(C#N)C1)N1Cc2ccnc3[nH]cc(c23)C1=O [Example 81]
Result: 126

Q: # value lookup — system JAK2 (Homo sapiens), readout IC50, item CC(C)[C@H](C(=O)N1CCS(=O)(=O)CC1)N1Cc2c(F)cnc3[nH]cc(c23)C1=O [Example 48]
Result: 5010

Q: # value lookup — system JAK2 (Homo sapiens), readout IC50, item CC(C)(C)[C@H](C(=O)N1CC(C#N)C1)N1Cc2ccnc3[nH]cc(c23)C1=O [Example 82]
Result: 39.8

Q: # value lookup — system JAK2 (Homo sapiens), readout IC50, item O=C(NC1CCCC1)[C@@H](CC(F)(F)F)N1Cc2ccnc3[nH]cc(c23)C1=O [Example 28]
Result: 10000

Q: # value lookup — system JAK2 (Homo sapiens), readout IC50, item CC[C@H](C(=O)N1CCC(COC)C1)N1Cc2ccnc3[nH]cc(c23)C1=O (stereo partly shown) [Example 60]
Result: 10000

Q: # value lookup — system JAK2 (Homo sapiens), readout IC50, item CC(C)[C@H](C(=O)NCC#N)N1Cc2c(Cl)cnc3[nH]cc(c23)C1=O [Example 32]
Result: 200

Q: # value lookup — system JAK2 (Homo sapiens), readout IC50, item CC(C)[C@H](C(=O)NC1CCS(=O)(=O)CC1)N1Cc2c(F)cnc3[nH]cc(c23)C1=O [Example 47]
Result: 2510

Q: # value lookup — system JAK2 (Homo sapiens), readout IC50, item CC(C)[C@H](C(=O)N1C[C@@H](F)C[C@H]1C#N)N1Cc2c(Cl)cnc3[nH]cc(c23)C1=O [Example 86]
Result: 398

###

- system-tested: JAK2 (Homo sapiens, UniProt O60674)
- Construct: purchased Invitrogen
- Sequence (O60674 whole entry): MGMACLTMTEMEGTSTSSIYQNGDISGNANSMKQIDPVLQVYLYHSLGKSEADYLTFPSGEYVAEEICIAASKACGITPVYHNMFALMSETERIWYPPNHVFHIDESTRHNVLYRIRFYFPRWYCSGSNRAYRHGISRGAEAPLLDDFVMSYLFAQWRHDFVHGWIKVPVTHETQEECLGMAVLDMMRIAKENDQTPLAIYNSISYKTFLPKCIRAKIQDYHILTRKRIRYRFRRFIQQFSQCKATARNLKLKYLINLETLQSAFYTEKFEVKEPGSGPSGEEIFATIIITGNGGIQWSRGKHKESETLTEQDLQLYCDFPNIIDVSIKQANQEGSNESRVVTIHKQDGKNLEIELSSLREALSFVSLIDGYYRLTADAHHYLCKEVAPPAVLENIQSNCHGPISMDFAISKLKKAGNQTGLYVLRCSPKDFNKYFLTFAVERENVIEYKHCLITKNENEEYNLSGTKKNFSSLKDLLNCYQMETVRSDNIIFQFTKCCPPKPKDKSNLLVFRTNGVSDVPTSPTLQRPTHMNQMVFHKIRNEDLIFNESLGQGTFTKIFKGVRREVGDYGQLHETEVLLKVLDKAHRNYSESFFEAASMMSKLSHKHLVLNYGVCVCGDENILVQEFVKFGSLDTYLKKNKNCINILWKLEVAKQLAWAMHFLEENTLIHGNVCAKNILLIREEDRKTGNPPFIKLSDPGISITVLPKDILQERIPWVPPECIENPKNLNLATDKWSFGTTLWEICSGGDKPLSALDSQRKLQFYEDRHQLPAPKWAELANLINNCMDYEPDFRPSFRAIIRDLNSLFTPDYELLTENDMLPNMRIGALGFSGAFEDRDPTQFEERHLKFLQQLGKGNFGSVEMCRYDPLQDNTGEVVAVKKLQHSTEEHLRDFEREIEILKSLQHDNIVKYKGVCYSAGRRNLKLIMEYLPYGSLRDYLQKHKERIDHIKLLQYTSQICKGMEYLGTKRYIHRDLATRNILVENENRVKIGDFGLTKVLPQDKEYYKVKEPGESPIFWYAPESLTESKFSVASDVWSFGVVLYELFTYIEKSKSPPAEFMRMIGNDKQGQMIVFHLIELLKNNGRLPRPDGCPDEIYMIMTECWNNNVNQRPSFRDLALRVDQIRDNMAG
- method: Assay for JAK2 Inhibition (phosphorylation of FAM-labeled substrate, Caliper LC-3000)
- Format: biochemical
- recorded-conditions: −log10(IC50), IC50 is the molar concentration at 50% inhibition; read-out: JAK2 pIC50 (converted)
Could you please report measured IC50 for the items listed next?

Q: Name the recorded IC50 for CC1(N2Cc3c[nH]c4nccc(c34)C2=O)CCN(C(=O)CC#N)CC1 .
Result: 79.4 nM

Q: Name the recorded IC50 for CC[C@H](C(=O)NCC1CC1)N1Cc2ccnc3[nH]cc(c23)C1=O .
Result: 20000 nM

Q: Name the recorded IC50 for CC[C@H](C(=O)NC1CC1)N1Cc2ccnc3[nH]cc(c23)C1=O .
Result: 6310 nM

Q: Name the recorded IC50 for CC(C)[C@H](C(=O)N1CC(F)(F)C1)N1Cc2c(F)cnc3[nH]cc(c23)C1=O .
Result: 1000 nM

Q: Name the recorded IC50 for CC(C)[C@H](C(=O)NC1CCOC1)N1Cc2c(F)cnc3[nH]cc(c23)C1=O (stereo partly drawn) .
Result: 1580 nM

Q: Name the recorded IC50 for Cc1cnc2[nH]cc3c2c1CN([C@@H](C(=O)N1CC(C#N)C1)C(C)(C)C)C3=O .
Result: 50.1 nM

###

- system-tested: JAK2 (Homo sapiens, UniProt O60674)
- Construct: purchased Invitrogen
- method: Assay for JAK2 Inhibition (phosphorylation of FAM-labeled substrate, Caliper LC-3000)
- Format: biochemical
- recorded-conditions: −log10(IC50), IC50 is the molar concentration at 50% inhibition; read-out: JAK2 pIC50 (converted)
value-kind: IC50 (µM)
The figure you give is taken to be in µM; do not add the unit.

Q: Name the recorded IC50 for CC(C)[C@H](C(=O)N1CCC[C@@H]1C#N)N1Cc2c(Cl)cnc3[nH]cc(c23)C1=O .
Result: 1.58

Q: Name the recorded IC50 for CC(C)(O)[C@H](C(=O)NC1CCCC1)N1Cc2ccnc3[nH]cc(c23)C1=O .
Result: 3.16

Q: Name the recorded IC50 for CC(C)[C@H](C(=O)Nc1ccc(C#N)cc1)N1Cc2c(Cl)cnc3[nH]cc(c23)C1=O .
Result: 2.51

Q: Name the recorded IC50 for CC[C@@H](C)[C@H](C(=O)NC1CCCC1)N1Cc2ccnc3[nH]cc(c23)C1=O .
Result: 3.98

Q: Name the recorded IC50 for CC(C)[C@H](C(=O)N1CCC(C#N)C1)N1Cc2c(Cl)cnc3[nH]cc(c23)C1=O (some centres unmarked) .
Result: 0.794

Q: Name the recorded IC50 for CC(C)[C@H](C(=O)N1CC(C#N)C1)N1Cc2c(F)cnc3[nH]cc(c23)C1=O .
Result: 0.126

Q: Name the recorded IC50 for CCC1(N2Cc3c[nH]c4nccc(c34)C2=O)CCN(C(=O)CC#N)CC1 .
Result: 0.02

Q: Name the recorded IC50 for N#CCC(=O)N1CCC(N2Cc3c[nH]c4nccc(c34)C2=O)CC1 .
Result: 0.794

###

- system-tested: JAK2 (Homo sapiens, UniProt O60674)
- Construct: purchased Invitrogen
- method: Assay for JAK2 Inhibition (phosphorylation of FAM-labeled substrate, Caliper LC-3000)
- Format: biochemical
- recorded-conditions: −log10(IC50), IC50 is the molar concentration at 50% inhibition; read-out: JAK2 pIC50 (converted)
Could you please report measured IC50 for the items listed next?

Q: Name the recorded IC50 for CC(C#N)NC(=O)[C@@H](C(C)C)N1Cc2c(F)cnc3[nH]cc(c23)C1=O (some centres unmarked) .
Result: 0.794 µM

Q: Name the recorded IC50 for CC[C@H](C)[C@H](C(=O)NC1CCCC1)N1Cc2ccnc3[nH]cc(c23)C1=O .
Result: 12.6 µM

Q: Name the recorded IC50 for O=C1c2c[nH]c3nccc(c23)CN1C1(C(=O)NC2CCCC2)CCCC1 .
Result: 20 µM

Q: Name the recorded IC50 for CC(C)[C@H](C(=O)N1CCS(=O)(=O)C1)N1Cc2c(F)cnc3[nH]cc(c23)C1=O .
Result: 1.58 µM

Q: Name the recorded IC50 for CC[C@H](C(=O)N1CCC(O)C1)N1Cc2ccnc3[nH]cc(c23)C1=O (some centres unmarked) .
Result: 10 µM

Q: Name the recorded IC50 for CC(C)[C@H](C(=O)N1CC(C#N)(CF)C1)N1Cc2ccnc3[nH]cc(c23)C1=O .
Result: 0.158 µM

Q: Name the recorded IC50 for CC[C@H](C(=O)NC1CCN(S(C)(=O)=O)CC1)N1Cc2ccnc3[nH]cc(c23)C1=O .
Result: 3.16 µM

Q: Name the recorded IC50 for CC(C)(C)[C@H](C(=O)NC1CCCC1)N1Cc2ccnc3[nH]cc(c23)C1=O .
Result: 0.126 µM

Q: Name the recorded IC50 for CC(C)[C@H](C(=O)NCCS(C)(=O)=O)N1Cc2c(F)cnc3[nH]cc(c23)C1=O .
Result: 1.58 µM

Q: Name the recorded IC50 for CC(C)(C)[C@H](C(=O)NCCC#N)N1Cc2c(Cl)cnc3[nH]cc(c23)C1=O .
Result: 1.26 µM

Q: Name the recorded IC50 for CCC(CC)N1Cc2c[nH]c3nccc(c23)C1=O .
Result: 0.0794 µM

Q: Name the recorded IC50 for CCC(=O)N1CCC(CC)(N2Cc3c[nH]c4nccc(c34)C2=O)CC1 .
Result: 0.01 µM

Q: Name the recorded IC50 for CC(C)(C)OC(=O)N1CCC(CN2Cc3c[nH]c4nccc(c34)C2=O)C1 (centres unmarked) .
Result: 3.16 µM

Q: Name the recorded IC50 for N#CC[C@H](C(=O)NC1CCCC1)N1Cc2c(Cl)cnc3[nH]cc(c23)C1=O .
Result: 3.16 µM

Q: Name the recorded IC50 for CC[C@H](C(=O)N1CCCC1)N1Cc2ccnc3[nH]cc(c23)C1=O .
Result: 3.98 µM

Q: Name the recorded IC50 for CC[C@@H](C(=O)N1CCCC1)N1Cc2ccnc3[nH]cc(c23)C1=O .
Result: 20 µM

Q: Name the recorded IC50 for CC[C@H](C(=O)N1CCN(C)CC1)N1Cc2ccnc3[nH]cc(c23)C1=O .
Result: 12.6 µM
